Would you kindly list Tau aggregation remaining (ThT fluorescence, % of tau-only control) for each of these compounds?
study.system: Tau protein (wild-type K18) (Homo sapiens, UniProt P10636)
Construct: Tau protein (wild-type K18)
Sequence (P10636 561-685 limits assumed): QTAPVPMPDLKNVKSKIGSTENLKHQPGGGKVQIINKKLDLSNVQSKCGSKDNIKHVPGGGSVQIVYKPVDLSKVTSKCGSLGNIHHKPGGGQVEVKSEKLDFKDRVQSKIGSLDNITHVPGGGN
assay.text: Tau protein aggregation inhibition test (thioflavin T assay)
Format: biochemical
condition.set: 50 uM test compound; heparin/DTT-induced aggregation, 37° C. 5 days; ThT fluorescence vs tau-only control = 100%

Sample records with Tau aggregation remaining (ThT fluorescence, % of tau-only control):
O=C1NC(=S)S/C1=C\c1c[nH]c2cccnc12    27.48 % of control
CCN1C(=O)/C(=C/c2c[nH]c3ncccc23)NC1=S    81.42 % of control
CCN1C(=O)C(Cc2ccc3occc3c2)NC1=S (centres unmarked)    61.551 % of control
CCN1C(=O)N/C(=C\c2c[nH]c3ccncc23)C1=O    83.97 % of control

For each of the items listed, what is its Tau aggregation remaining (ThT fluorescence, % of tau-only control)?
1. O=C1NC(=S)SC1Cc1cc[nH]c1 (centres unmarked)
2. O=C1NC(=S)S/C1=C\c1c[nH]c2ccccc12
3. O=C1NC(=O)C(Cc2c[nH]c3ccccc23)S1 (centres unmarked)
4. CN1C(=O)N/C(=C\c2cccc3ccoc23)C1=O
5. CCN1C(=O)/C(=C/c2c[nH]c3ccccc23)NC1=S
6. O=C1NC(=S)SC1Cc1c[nH]c2ccccc12 (centres unmarked)

Reply:
["82.4 % of control", "13.243 % of control", "74.98 % of control", "87.73 % of control", "43.22 % of control", "90.337 % of control"]

Query: # query: Tau aggregation remaining (ThT fluorescence, % of tau-only control) of entry O=C1NC(=O)C(Cc2csc3ccccc23)S1 (centres unmarked)
Reply: 65.99 % of control

###

study.system: pathological (P301S) tau (Homo sapiens, UniProt P10636, P618S)
Sequence (P10636 1-441 isoform P10636-8 P301S): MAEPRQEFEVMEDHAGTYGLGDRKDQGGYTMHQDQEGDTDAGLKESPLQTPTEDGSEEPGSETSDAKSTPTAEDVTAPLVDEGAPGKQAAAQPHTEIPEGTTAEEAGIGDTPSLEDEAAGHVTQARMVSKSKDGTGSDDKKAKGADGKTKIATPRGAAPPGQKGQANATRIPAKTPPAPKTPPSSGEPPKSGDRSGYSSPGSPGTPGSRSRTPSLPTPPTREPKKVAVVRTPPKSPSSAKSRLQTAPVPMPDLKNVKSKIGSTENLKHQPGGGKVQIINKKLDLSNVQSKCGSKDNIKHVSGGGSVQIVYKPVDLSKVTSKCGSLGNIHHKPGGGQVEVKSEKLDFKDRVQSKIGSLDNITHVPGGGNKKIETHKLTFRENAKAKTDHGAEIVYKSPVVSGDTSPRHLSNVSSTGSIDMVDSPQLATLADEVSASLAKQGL
assay.text: SPR binding affinity of tau PROTAC to P301S tau
condition.set: CM5 sensor chip, concentration-dependent kinetic assay, read-out: binding affinity (Ka) to the P301S tau
Procedure: The following experiment was performed to verify that the compound according to the present invention selectively degrades only phosphorylated tau. […] Whether or not the obtained proteins bound to the tau PROTAC was determined through an SPR experiment. A CM5 sensor chip including dextran attached thereto was used, tau PROTAC was allowed to flow and the binding affinity between the protein and the compound was determined based on a response unit (RU). […]
measurement.label: Kd
Answer with the figure and its unit, nothing else.

CCN1C(=O)/C(=C/c2cn(Cc3cn(CCOCCOCC(=O)Nc4cccc5c4C(=O)N(C4CCC(=O)NC4=O)C5=O)nn3)c3ccccc23)NC1=S (centres unmarked) [TAU-2 PROTAC]    18.7 µM

Next item in the queue.
Query: # query: Kd of entry CCN1C(=O)/C(=C/c2cn(Cc3cn(CCOCCOCCOCC(=O)Nc4cccc5c4C(=O)N(C4CCC(=O)NC4=O)C5=O)nn3)c3cccnc23)NC1=S (centres unmarked) [TAU-1 PROTAC]
Reply: 42 µM

###

Would you kindly list ThT fluorescence remaining (% of control) for each of these compounds?
study.system: aggregated tau protein (wild-type K18) (Homo sapiens, UniProt P10636)
Construct: Tau protein (wild-type K18)
assay.text: Tau protein aggregate degradation test (thioflavin T assay)
Type: biochemical
condition.set: 500 uM test compound; pre-aggregated tau, further 5 days at 37° C.; ThT fluorescence vs control = 100%

CCN1C(=O)/C(=C/c2c[nH]c3ccccc23)NC1=S [DN204811]    31.04 % of control
CCN1C(=O)/C(=C/c2ccoc2)NC1=S [DN204814]    −22.72 % of control
O=C1NC(=S)SC1Cc1cc[nH]c1 (stereo not drawn) [DN204303]    39.19 % of control

For each of the items listed, what is its ThT fluorescence remaining (% of control)?
1. CCN1C(=O)/C(=C/c2c[nH]c3cccnc23)NC1=S [DN204817]
2. O=C1NC(=O)/C(=C/c2c[nH]c3cccnc23)S1 [DN204289]
3. CCN1C(=O)/C(=C/c2c[nH]c3cccnc23)SC1=S [DN205781]
4. O=C1NC(=O)/C(=C/c2ccoc2)S1 [DN204287]
5. O=C1NC(=S)S/C1=C\c1ccsc1 [DN204299]

Reply:
1. 43.06 % of control
2. 52.83 % of control
3. 23.79 % of control
4. 71.42 % of control
5. 45.09 % of control

For each of the items listed, what is its ThT fluorescence remaining (% of control)?
1. CCN1C(=O)/C(=C/c2c[nH]c3ccncc23)SC1=S [DN205780]
2. O=C1NC(=S)S/C1=C\c1c[nH]c2ncccc12 [DN205355]
3. O=C1NC(=S)S/C1=C\c1c[nH]c2ccccc12 [DN204296]
4. O=C1NC(=S)SC1Cc1c[nH]c2ccccc12 (stereo not drawn) [DN204301]
5. O=C1NC(=O)C(Cc2ccsc2)S1 (stereo not drawn) [DN204293]
6. O=C1NC(=S)SC1Cc1ccsc1 (stereo not drawn) [DN204306]

Reply:
10.84 % of control
30.65 % of control
16.48 % of control
45.47 % of control
95.86 % of control
73.34 % of control

For each of the items listed, what is its ThT fluorescence remaining (% of control)?
1. O=C1NC(=S)S/C1=C\c1cc[nH]c1 [DN204297]
2. CCN1C(=O)C(Cc2ccc3occc3c2)NC1=S (stereo not drawn) [DN205353]
3. O=C1NC(=O)C(Cc2ccoc2)S1 (stereo not drawn) [DN204292]
4. O=C1NC(=O)/C(=C/c2c[nH]c3cnccc23)S1 [DN204290]
5. O=C1NC(=O)/C(=C/c2c[nH]c3ccccc23)S1 [DN204285]
6. O=C1NC(=S)S/C1=C\c1c[nH]c2cccnc12 [DN204808]
7. O=C1NC(=S)S/C1=C\c1csc2ccccc12 [DN204818]

Reply:
["17.97 % of control", "80.59 % of control", "77.46 % of control", "40.38 % of control", "78.38 % of control", "41.11 % of control", "5.16 % of control"]
